- system name: CepR (Burkholderia cenocepacia, UniProt B4EMD0)
- Sequence (B4EMD0 1-239): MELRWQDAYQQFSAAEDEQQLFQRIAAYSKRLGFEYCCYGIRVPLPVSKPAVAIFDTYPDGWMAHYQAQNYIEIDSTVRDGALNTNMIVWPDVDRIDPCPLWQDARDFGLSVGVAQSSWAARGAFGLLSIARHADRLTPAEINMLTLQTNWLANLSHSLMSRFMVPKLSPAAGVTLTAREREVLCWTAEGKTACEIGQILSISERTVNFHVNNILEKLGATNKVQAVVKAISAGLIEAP
- method: CepR antagonism in E. coli β-galactosidase reporter (Ec-reporter), competition against C8-AHL
- Assay type: cell-based, B. cenocepacia
- measurement conditions: Table S3, Ec-reporter; screening conc. 100 μM; against 10 nM C8-AHL
parameter: Inh% (100-Act%)
The reply should be a number in %, with the unit left off.

Bench note, CepR (Burkholderia cenocepacia, UniProt B4EMD0): O=C(Cc1ccc([N+](=O)[O-])cc1)N[C@H]1CCOC1=O [Compound C13] , Inh% (100-Act%) reads 79

Bench note, CepR (Burkholderia cenocepacia, UniProt B4EMD0): O=C(Cc1ccc(C(F)(F)F)cc1)N[C@H]1CCOC1=O [Compound C20] , Inh% (100-Act%) reads -52

Bench note, CepR (Burkholderia cenocepacia, UniProt B4EMD0): Cc1ccc(OCC(=O)N[C@H]2CCOC2=O)cc1 [Compound E15] , Inh% (100-Act%) reads -30

Bench note, CepR (Burkholderia cenocepacia, UniProt B4EMD0): O=C(N[C@H]1CCOC1=O)c1ccc(Br)cc1 [Compound B6] , Inh% (100-Act%) reads 18

Bench note, CepR (Burkholderia cenocepacia, UniProt B4EMD0): O=C(N[C@H]1CCOC1=O)c1ccc(Cl)cc1 [Compound Q4] , Inh% (100-Act%) reads -20

====

- system name: CepR (Burkholderia cenocepacia, UniProt B4EMD0)
- method: CepR agonism in E. coli β-galactosidase reporter (Ec-reporter) JLD271 [pJN105-cepR + pSC11-cepI]
- Type: cell-based, B. cenocepacia
- measurement conditions: Ec-reporter; activity for 100 μM C8-AHL set to 100%; error ±10%
- Protocol: We began our study by screening the AHL library for CepR modulators using an E. coli-based two plasmid reporter system (Ec-reporter)[38]–[40]. […] Cells were grown for 4 h, OD600 was read, 50 μL aliquots from each well were permeabilized in 200 μL Z Buffer, and then 150 μL of this mixture used to measure the cleavage of 25 μL of 4 mg/mL CPRG in phosphate buffered saline (PBS) at 37 °C until positive control wells developed a deep red color (~30 min). […]
Can you tell me Maximal Activation (%) for the items I'm about to list?
The reply should be a number in %, with the unit left off.

Lab note: O=C(CCc1ccc(Br)cc1)N[C@H]1CCOC1=O gave Maximal Activation (%) of 97

Lab note: O=C(CCc1ccccc1)N[C@H]1CCOC1=O gave Maximal Activation (%) of 88

Lab note: Cc1ccc(CCC(=O)N[C@H]2CCOC2=O)cc1 gave Maximal Activation (%) of 96

Lab note: CCCCCCCCCCCC(=O)N[C@H]1CCOC1=O [Compound C12-AHL, Dodecanoyl L-homoserine lactone, reference compound] gave Maximal Activation (%) of 98

Lab note: CCCCCC(=O)CC(=O)N[C@@H]1CCOC1=O gave Maximal Activation (%) of 85

Lab note: O=C(CCc1cccc(Br)c1)N[C@H]1CCOC1=O gave Maximal Activation (%) of 89

Lab note: O=C(CCc1cccc([N+](=O)[O-])c1)N[C@H]1CCOC1=O gave Maximal Activation (%) of 93

Lab note: O=C(CCc1cccc(I)c1)N[C@H]1CCOC1=O gave Maximal Activation (%) of 92

Lab note: CCCC(=O)N[C@H]1CCOC1=O [Compound C4-AHL, butanoyl L-homoserine lactone, reference compound] gave Maximal Activation (%) of 23

Lab note: CCCCCC(=O)N[C@H]1CCOC1=O [Compound C6-AHL, hexanoyl L-homoserine lactone, reference compound] gave Maximal Activation (%) of 87

Lab note: CCCCCCCCS(=O)(=O)N[C@H]1CCOC1=O gave Maximal Activation (%) of 110

Lab note: O=C(CCC1CCCCC1)N[C@H]1CCOC1=O gave Maximal Activation (%) of 87

Lab note: CCCCCCCCCCCCCC(=O)N[C@H]1CCOC1=O [Compound C14-AHL, tetradecanoyl L-homoserine lactone, reference compound] gave Maximal Activation (%) of 49

Lab note: O=C(CCc1ccc(Cl)cc1)N[C@H]1CCOC1=O gave Maximal Activation (%) of 85

Lab note: O=C(CCc1ccc2c(c1)OCO2)N[C@H]1CCOC1=O gave Maximal Activation (%) of 100

Lab note: CCCCCC(O)CC(=O)N[C@H]1CCOC1=O (stereo partly drawn) [3’OH-C8-AHL, reference compound] gave Maximal Activation (%) of 84

Lab note: COc1ccc(CCC(=O)N[C@H]2CCOC2=O)cc1 gave Maximal Activation (%) of 92

Lab note: O=C(CCc1cccc(C(F)(F)F)c1)N[C@H]1CCOC1=O gave Maximal Activation (%) of 92
